Recorded values, source patent US7511119B2.

tested on: T cell lines against natural epitope SSX-241-49; experiment: Cross-reactivity and functional avidity: IFN-gamma production by T cell lines raised against natural SSX-2 41-49; type: cell-based, HHD transgenic mice; details: T cells raised to native peptide tested on analogs; footnote * and unit not given;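 further: analogs presented ex vivo by competent APCs to T cells specific for the non-mutated epitope, scored by lowest activating concentration, peak cytokine effect and concentration at that peak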
Square brackets hold non-standard residues; d marks the D form. Peptide text beside a SMILES is read from it. Phe(4-NO2) = N[C@@H](Cc1ccc([N+](=O)[O-])cc1)C(=O)O; Bta = N[C@@H](Cc1csc2ccccc12)C(=O)O; Phg = N[C@H](C(=O)O)c1ccccc1; Nle = CCCC[C@H](N)C(=O)O
Cross-reactivity and fct avidity (native to analogs)* below 0.3 gives not satisfied; Cross-reactivity and fct avidity (native to analogs)* at or above it gives satisfied.

Ask: # check: Cross-reactivity and fct avidity (native to analogs)* of CC[C@H](C)[C@H](NC(=O)[C@H](CCCCN)NC(=O)[C@H](CCC(=O)O)NC(=O)[C@H](CO)NC(=O)[C@@H](NC(=O)[C@@H](N)Cc1ccccc1)C(C)C)C(=O)N[C@@H](Cc1ccccc1)C(=O)N[C@H](C(=O)N[C@H](C(=O)O)C(C)C)c1ccccc1 [SSX2 41-49 (K41F, A42V, Y48Phg), FVSEKIF(Phg)V] (H-FVSEKIF[Phg]V-OH) is greater than or equal to 0.3
Reply: satisfied

Ask: # check: Cross-reactivity and fct avidity (native to analogs)* of CCCC[C@H](NC(=O)[C@H](Cc1ccc(O)cc1)NC(=O)[C@H](Cc1ccccc1)NC(=O)[C@@H](NC(=O)[C@H](CCCCN)NC(=O)[C@H](CCC(=O)O)NC(=O)[C@H](CO)NC(=O)[C@@H](NC(=O)[C@@H](N)Cc1ccccc1)C(C)C)[C@@H](C)CC)C(=O)O [SSX2 41-49 (K41F, A42V, V49Nle)] is greater than or equal to 0.3
Reply: satisfied

Ask: # check: Cross-reactivity and fct avidity (native to analogs)* of CC[C@H](C)[C@H](NC(=O)[C@H](CCCCN)NC(=O)[C@H](CCC(=O)O)NC(=O)[C@H](CO)NC(=O)[C@@H](NC(=O)[C@@H](N)Cc1c[nH]c2ccccc12)[C@@H](C)CC)C(=O)N[C@@H](Cc1ccccc1)C(=O)N[C@@H](Cc1ccc(O)cc1)C(=O)N[C@H](C(=O)O)C(C)C [SSX2 41-49 (K41W, A42I)] is greater than or equal to 0.3
Reply: not satisfied

Ask: # check: Cross-reactivity and fct avidity (native to analogs)* of CC[C@H](C)[C@H](NC(=O)[C@H](CCCCN)NC(=O)[C@H](CCC(=O)O)NC(=O)[C@H](CO)NC(=O)[C@H](C)NC(=O)[C@@H](N)c1ccccc1)C(=O)N[C@@H](Cc1ccccc1)C(=O)N[C@@H](Cc1ccc(O)cc1)C(=O)N[C@H](C(=O)O)C(C)C [SSX2 41-49 (K41(Phg))] (H-[Phg]ASEKIFYV-OH) is greater than or equal to 0.3
Reply: not satisfied

Ask: # check: Cross-reactivity and fct avidity (native to analogs)* of CC[C@H](NC(=O)[C@H](Cc1ccc(O)cc1)NC(=O)[C@H](Cc1ccccc1)NC(=O)[C@@H](NC(=O)[C@H](CCCCN)NC(=O)[C@H](CCC(=O)O)NC(=O)[C@H](CO)NC(=O)[C@@H](NC(=O)[C@@H](N)Cc1ccccc1)C(C)C)[C@@H](C)CC)C(=O)O [SSX2 41-49 (K41F, A42V, V49Abu)] is greater than or equal to 0.3
Reply: satisfied

Ask: # check: Cross-reactivity and fct avidity (native to analogs)* of CC[C@H](C)[C@H](NC(=O)[C@H](CCCCN)NC(=O)[C@H](CCC(=O)O)NC(=O)[C@H](CO)NC(=O)[C@H](C)NC(=O)[C@@H](N)Cc1csc2ccccc12)C(=O)N[C@@H](Cc1ccccc1)C(=O)N[C@@H](Cc1ccc(O)cc1)C(=O)N[C@H](C(=O)O)C(C)C [SSX2 41-49 (K41(b-(3-benzothienyl)Ala))] (H-[Bta]ASEKIFYV-OH) is greater than or equal to 0.3
Reply: satisfied

Ask: # check: Cross-reactivity and fct avidity (native to analogs)* of CC[C@H](C)[C@H](NC(=O)[C@H](CCCCN)NC(=O)[C@H](CCC(=O)O)NC(=O)[C@H](CO)NC(=O)[C@@H](NC(=O)[C@@H](N)Cc1ccc(O)cc1)C(C)C)C(=O)N[C@@H](Cc1ccccc1)C(=O)N[C@@H](Cc1ccc(O)cc1)C(=O)N[C@H](C(=O)O)C(C)C [SSX2 41-49 (K41Y, A42V)] is greater than or equal to 0.3
Reply: not satisfied

Ask: # check: Cross-reactivity and fct avidity (native to analogs)* of CC[C@H](C)[C@H](NC(=O)[C@H](CCCCN)NC(=O)[C@H](CCC(=O)O)NC(=O)[C@H](CO)NC(=O)[C@H](C)NC(=O)[C@@H](N)Cc1c[nH]c2ccccc12)C(=O)N[C@@H](Cc1ccccc1)C(=O)N[C@@H](Cc1ccc(O)cc1)C(=O)N[C@H](C(=O)O)C(C)C [SSX2 41-49 (K41W)] is greater than or equal to 0.3
Reply: satisfied

Ask: # check: Cross-reactivity and fct avidity (native to analogs)* of CC[C@H](C)[C@H](NC(=O)[C@H](CCCCN)NC(=O)[C@H](CCC(=O)O)NC(=O)[C@H](CO)NC(=O)[C@H](C)NC(=O)[C@@H](N)Cc1ccc([N+](=O)[O-])cc1)C(=O)N[C@@H](Cc1ccccc1)C(=O)N[C@@H](Cc1ccc(O)cc1)C(=O)N[C@H](C(=O)O)C(C)C [SSX2 41-49 (K41(Phe-4NO2))] (H-[Phe(4-NO2)]ASEKIFYV-OH) is greater than or equal to 0.3
Reply: satisfied

Ask: # check: Cross-reactivity and fct avidity (native to analogs)* of CCCC[C@H](NC(=O)[C@H](CCCCN)NC(=O)[C@H](CCC(=O)O)NC(=O)[C@H](CO)NC(=O)[C@@H](NC(=O)[C@@H](N)Cc1ccccc1)C(C)C)C(=O)N[C@@H](Cc1ccccc1)C(=O)N[C@@H](Cc1ccc(O)cc1)C(=O)N[C@H](C(=O)O)C(C)C [SSX2 41-49 (K41F, A42V, I46Nle), FVSEK(Nle)FYV] (H-FVSEK[Nle]FYV-OH) is greater than or equal to 0.3
Reply: satisfied
